assay_overview: Permeability of the compound
Assay type: ADME
condition_description: not told; read-out: permeability
measurement_type: Papp (×10⁻⁶ cm/s)
Form entry: value (×10⁻⁶ cm/s) — number only.

Papp measured on "Nc1nc(C(=O)NCc2cccc3cccnc23)c2ccccc2n1" = 40

====

assay_overview: AUC in haloperidol-induced Sprague-Dawley rat cataleptic model at 10 mg/kg, po administered for 1 hr
Format: ADME, organism-based
condition_description: in vivo
Response key: True means AUC at 1 h >= 2 µM·h; False means AUC at 1 h < 2 µM·h.

Given "Nc1nc(C(=O)NCc2cccc3cccnc23)c2cccc(I)c2n1" , state whether its AUC at 1 h is at least 2 µM·h.
False

Given "Nc1nc(C(=O)NCc2cccc3cccnc23)c2ccccc2n1" , state whether its AUC at 1 h is at least 2 µM·h.
False

Given "Nc1nc(C(=O)NCc2cccc3cccnc23)c2cc(F)ccc2n1" , state whether its AUC at 1 h is at least 2 µM·h.
False

Given "Nc1nc(C(=O)NCc2cccc3cccnc23)c2cccc(F)c2n1" , state whether its AUC at 1 h is at least 2 µM·h.
True

Given "Nc1nc(C(=O)NCc2cccc3cccnc23)c2ccc(F)cc2n1" , state whether its AUC at 1 h is at least 2 µM·h.
True

====

Adenosine receptor A2a (Homo sapiens) pKi data
The value called pKi is obtained by taking minus log10 of the concentration in mol/L.

pKi measured on "Cc1ccccc1CNC(=O)c1nc(N)nc2c(F)cccc12" = 7.87

pKi measured on "Nc1nc(C(=O)NCc2cccc3cc(C(=O)NCCCCCc4ccccc4)cnc23)c2cccc(F)c2n1" = 8.16

pKi measured on "Nc1nc(C(=O)NCc2cccc3cccnc23)c2cc(F)ccc2n1" = 8.36

pKi measured on "Nc1nc(C(=O)NCc2cccc3c2C(=O)NC3)c2cccc(F)c2n1" = 8.74

pKi measured on "CCCCOc1ccnc2c(CNC(=O)c3nc(N)nc4c(F)cccc34)cccc12" = 6.61

pKi measured on "N#Cc1cccc2c(C(=O)NCc3cccc4cccnc34)nc(N)nc12" = 7.62

pKi measured on "COCCOc1ccc(N2CCN(C(=O)c3cnc4c(CNC(=O)c5nc(N)nc6c(F)cccc56)cccc4c3)CC2)cc1" = 8.32

pKi measured on "Cn1nccc1-c1cccc2c(C(=O)NCc3cccc4cccnc34)nc(N)nc12" = 5.99

====

target_desc: Adenosine receptor A2a (Rattus norvegicus)
Sequence (P30543 whole entry): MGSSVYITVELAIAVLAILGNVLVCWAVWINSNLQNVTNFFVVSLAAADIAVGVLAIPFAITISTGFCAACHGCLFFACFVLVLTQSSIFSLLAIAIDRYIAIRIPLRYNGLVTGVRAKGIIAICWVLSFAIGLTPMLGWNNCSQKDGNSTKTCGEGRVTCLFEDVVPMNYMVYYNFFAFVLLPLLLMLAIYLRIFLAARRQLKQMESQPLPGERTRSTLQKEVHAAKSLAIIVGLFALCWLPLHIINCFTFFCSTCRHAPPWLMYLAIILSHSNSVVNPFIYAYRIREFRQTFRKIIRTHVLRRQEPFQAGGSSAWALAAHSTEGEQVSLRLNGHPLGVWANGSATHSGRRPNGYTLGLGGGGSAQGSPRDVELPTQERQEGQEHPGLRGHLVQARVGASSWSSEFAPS
assay_overview: Binding affinity to rat A2A adenosine receptor
condition_description: read-out: Ki
measurement_type: Ki (nM)
Form entry: value (nM) — number only.

Ki measured on "Nc1nc(C(=O)NCc2cccc3cccnc23)c2cccc(F)c2n1" = 1.3

Ki measured on "CSc1cccc2c(C(=O)NCc3cccc4cccnc34)nc(N)nc12" = 12

Ki measured on "Nc1nc(C(=O)NCc2cccc3cccnc23)c2cccc(Cl)c2n1" = 2.9

Ki measured on "Nc1nc(C(=O)NCc2cccc3cccnc23)c2ccccc2n1" = 11

Ki measured on "Nc1nc(C(=O)NCc2cccc3cccnc23)c2cc(F)ccc2n1" = 8.7

Ki measured on "Nc1nc(C(=O)NCc2cccc3cccnc23)c2ccc(F)cc2n1" = 4.8

====

assay_overview: Clearance in human hepatocytes assessed per million cells
Assay type: ADME, cell-based, Hepatocyte
condition_description: read-out: CLH
measurement_type: hepatocyte CLint

hepatocyte CLint measured on "Nc1nc(C(=O)NCc2cccc3cccnc23)c2ccccc2n1" = 34.8 µL/min/1e6 cells

====

assay_overview: Clearance in rat hepatocytes assessed per million cells
Format: ADME, cell-based, Hepatocyte
condition_description: read-out: CLH
measurement_type: hepatocyte CLint (µL/min/1e6 cells)
Form entry: value (µL/min/1e6 cells) — number only.

hepatocyte CLint measured on "Nc1nc(C(=O)NCc2cccc3cccnc23)c2ccccc2n1" = 12.8

====

Consider the following molecules; for each one, report its AUC at 1 h.
assay_overview: AUC in haloperidol-induced Sprague-Dawley rat cataleptic model at 30 mg/kg, po administered for 1 hr
Assay type: ADME, organism-based
condition_description: in vivo
Form entry: value (µM·h) — number only.

AUC at 1 h measured on "CSc1cccc2c(C(=O)NCc3cccc4cccnc34)nc(N)nc12" = 8.9

AUC at 1 h measured on "COc1cccc2c(C(=O)NCc3cccc4cccnc34)nc(N)nc12" = 0.8

====

assay_overview: Plasma protein binding in rat
Assay type: ADME, cell-free
condition_description: read-out: PPB (converted)
measurement_type: fraction unbound

fraction unbound measured on "Nc1nc(C(=O)NCc2cccc3cccnc23)c2ccccc2n1" = 0.045

====

target_desc: Adenosine receptor A2a (Rattus norvegicus)
assay_overview: Binding affinity to rat A2A adenosine receptor
condition_description: read-out: Ki
measurement_type: Ki (nM)
Form entry: value (nM) — number only.

Ki measured on "COCCOc1ccc(N2CCN(C(=O)c3cnc4c(CNC(=O)c5nc(N)nc6c(F)cccc56)cccc4c3)CC2)cc1" = 11.4

Ki measured on "COc1ccnc2c(CNC(=O)c3nc(N)nc4c(F)cccc34)cccc12" = 1.3

Ki measured on "Nc1nc(C(=O)NCc2cccc3cccnc23)c2cccc(C(F)(F)F)c2n1" = 57

Ki measured on "CS(=O)(=O)c1cccc2c(C(=O)NCc3cccc4cccnc34)nc(N)nc12" = 302

Ki measured on "COc1cccc2c(C(=O)NCc3cccc4cccnc34)nc(N)nc12" = 0.6

Ki measured on "Nc1nc(C(=O)NCc2cccc3cccnc23)c2cccc(OC(F)(F)F)c2n1" = 2.9

Ki measured on "Nc1nc(C(=O)NCc2cccc3cc(C(=O)N4CCN(c5ccccn5)CC4)cnc23)c2cccc(F)c2n1" = 12.5

====

assay_overview: Drug uptake in brain of haloperidol-induced Sprague-Dawley rat cataleptic model after 1 hr
Type: ADME, tissue-based
condition_description: read-out: Drug uptake
measurement_type: concentration at 1 h (µM)
Form entry: value (µM) — number only.

concentration at 1 h measured on "Nc1nc(C(=O)NCc2cccc3cccnc23)c2ccccc2n1" = 3.1

====

assay_overview: Plasma protein binding in human
Assay type: ADME, cell-free
condition_description: read-out: PPB (converted)
measurement_type: fraction unbound

fraction unbound measured on "Nc1nc(C(=O)NCc2cccc3cccnc23)c2ccccc2n1" = 0.036

====

assay_overview: Plasma concentration in haloperidol-induced Sprague-Dawley rat cataleptic model after 1 hr
Format: ADME
measurement_type: concentration at 1 h (µM)
Form entry: value (µM) — number only.

concentration at 1 h measured on "Nc1nc(C(=O)NCc2cccc3cccnc23)c2ccccc2n1" = 4.2

====

target_desc: Adenosine receptor A2a (Homo sapiens, UniProt P29274)
Sequence (P29274 whole entry): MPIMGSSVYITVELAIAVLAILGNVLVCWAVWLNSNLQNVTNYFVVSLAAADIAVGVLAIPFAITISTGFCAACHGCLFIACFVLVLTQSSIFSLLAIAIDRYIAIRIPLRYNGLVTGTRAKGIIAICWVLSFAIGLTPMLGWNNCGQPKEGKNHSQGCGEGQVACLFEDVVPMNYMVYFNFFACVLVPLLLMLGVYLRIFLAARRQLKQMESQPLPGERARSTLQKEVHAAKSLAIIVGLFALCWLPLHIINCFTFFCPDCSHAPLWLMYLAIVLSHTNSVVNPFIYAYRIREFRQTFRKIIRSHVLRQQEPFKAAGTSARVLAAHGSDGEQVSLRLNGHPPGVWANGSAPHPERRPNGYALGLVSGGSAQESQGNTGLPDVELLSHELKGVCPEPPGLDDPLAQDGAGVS
pKi: −log10 of the molar value.
Response key: rule met means pKi >= 8; rule not met means pKi < 8.

Given "Nc1nc(C(=O)NCc2cccc3c2OCCO3)c2cccc(F)c2n1" , state whether its pKi is at least 8.
rule not met

Given "Nc1nc(C(=O)NCC2CCCCC2)c2cccc(F)c2n1" , state whether its pKi is at least 8.
rule not met

Given "Nc1nc(C(=O)NCc2cccc3cccnc23)c2cccc(I)c2n1" , state whether its pKi is at least 8.
rule met

Given "Nc1nc(C(=O)NCCc2ccccc2)c2cccc(F)c2n1" , state whether its pKi is at least 8.
rule not met

Given "CCn1cnc2c(CNC(=O)c3nc(N)nc4c(F)cccc34)cccc21" , state whether its pKi is at least 8.
rule met

Given "Nc1nc(C(=O)NCc2cccc3cc(C(=O)N4CCCc5ccccc54)cnc23)c2cccc(F)c2n1" , state whether its pKi is at least 8.
rule met

====

target_desc: Adenosine receptor A1 (Homo sapiens, UniProt P30542)
Sequence (P30542 whole entry): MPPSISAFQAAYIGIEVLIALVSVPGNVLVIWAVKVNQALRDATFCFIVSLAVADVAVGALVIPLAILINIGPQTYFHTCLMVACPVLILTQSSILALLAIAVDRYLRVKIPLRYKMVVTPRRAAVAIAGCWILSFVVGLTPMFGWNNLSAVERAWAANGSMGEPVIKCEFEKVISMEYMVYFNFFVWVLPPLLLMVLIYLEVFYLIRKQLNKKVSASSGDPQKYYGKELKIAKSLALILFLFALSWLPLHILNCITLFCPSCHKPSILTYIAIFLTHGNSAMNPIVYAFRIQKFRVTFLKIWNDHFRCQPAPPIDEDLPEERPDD
# class assignment by measured Ki: low = under 70 nM, mid = from 70 nM up to 200 nM, high = 200 nM and over

Please let me know in which category the item "Nc1nc(C(=O)NCc2cccc3cc(C(=O)N4CCN(c5ccccn5)CC4)cnc23)c2cccc(F)c2n1" belongs.
mid

Please let me know in which category the item "COCCOc1ccc(N2CCN(C(=O)c3cnc4c(CNC(=O)c5nc(N)nc6c(F)cccc56)cccc4c3)CC2)cc1" belongs.
mid

Please let me know in which category the item "Nc1nc(C(=O)NCc2cccc3c2C(=O)NC3)c2cccc(F)c2n1" belongs.
low

Please let me know in which category the item "Nc1nc(C(=O)NCc2cccc3c2NCCC3)c2cccc(F)c2n1" belongs.
high

Please let me know in which category the item "Nc1nc(C(=O)NCc2cccc3cc[nH]c23)c2cccc(F)c2n1" belongs.
low

Please let me know in which category the item "Nc1cc(C(=O)NCc2cccc3cccnc23)c2ccccc2n1" belongs.
high

Please let me know in which category the item "Nc1nc(C(=O)NCc2cccc3cccnc23)c2cccc(C(F)(F)F)c2n1" belongs.
high

Please let me know in which category the item "Nc1nc(C(=O)NCc2ccnc3ccccc23)c2cccc(F)c2n1" belongs.
high

Please let me know in which category the item "CSc1cccc2c(C(=O)NCc3cccc4cccnc34)nc(N)nc12" belongs.
mid

Please let me know in which category the item "Nc1nc(C(=O)NCc2cccc3cccnc23)c2cccc(I)c2n1" belongs.
low

Please let me know in which category the item "Nc1nc(C(=O)NCCc2ccccc2)c2cccc(F)c2n1" belongs.
high

Please let me know in which category the item "Nc1nc(C(=O)NCC2CCCCC2)c2cccc(F)c2n1" belongs.
mid

Please let me know in which category the item "CCOc1ccnc2c(CNC(=O)c3nc(N)nc4c(F)cccc34)cccc12" belongs.
high

Please let me know in which category the item "Nc1nc(C(=O)NCc2cccc3cc(C(=O)NCCCCCc4ccccc4)cnc23)c2cccc(F)c2n1" belongs.
mid

Please let me know in which category the item "Cc1cccc(CNC(=O)c2nc(N)nc3c(F)cccc23)c1" belongs.
mid

Please let me know in which category the item "Nc1nc(C(=O)NCc2cccc3cccnc23)c2ccc(F)cc2n1" belongs.
low

Please let me know in which category the item "C[C@H](NC(=O)c1nc(N)nc2c(F)cccc12)c1cccc2cccnc12" belongs.
high

Please let me know in which category the item "C[C@@H](NC(=O)c1nc(N)nc2c(F)cccc12)c1cccc2cccnc12" belongs.
low

Please let me know in which category the item "Nc1nc(C(=O)NCc2cccc3cccnc23)c2cccc(F)c2n1" belongs.
low
